- Measurement target: T1, Chicken gizzard tropomyosin (Tpm), purified (chicken)
- T1 construct: Bought from Sigma and coated on 96-well plates; also called purified Tpm; immobilized Tpm
- T1 sequence (chain, as listed by the source limits assumed): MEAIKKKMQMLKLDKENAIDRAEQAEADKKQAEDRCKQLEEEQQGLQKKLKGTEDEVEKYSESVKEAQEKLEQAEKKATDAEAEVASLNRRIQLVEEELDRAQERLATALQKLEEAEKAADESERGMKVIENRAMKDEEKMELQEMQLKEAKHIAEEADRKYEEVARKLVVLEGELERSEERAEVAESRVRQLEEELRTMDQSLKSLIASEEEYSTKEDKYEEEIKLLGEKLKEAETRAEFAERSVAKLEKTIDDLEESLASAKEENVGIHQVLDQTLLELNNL
- Measurement notes: displacement of 10 nM biotin-HKa from immobilized chicken gizzard Tpm, 10 µM ZnCl2
pIC50: −log10 of the molar value.
Parameter: pIC50. Scope: all listed entries.
Metric name: pIC50

* HHPHG (Synthetic pentapeptide; also called HHPHG) [ATN230] | 3.92
* HPPHG (also called HPPHG) [ATN228] | 3.82
* HKNKGKKN [ATN16] | 4.00
* TRRHDWGH [ATN232] | 3.85

Source: patent US20050124794A1
